Target: hVps34 (PIK3C3) (Homo sapiens)
Sequence (Q8NEB9 whole entry): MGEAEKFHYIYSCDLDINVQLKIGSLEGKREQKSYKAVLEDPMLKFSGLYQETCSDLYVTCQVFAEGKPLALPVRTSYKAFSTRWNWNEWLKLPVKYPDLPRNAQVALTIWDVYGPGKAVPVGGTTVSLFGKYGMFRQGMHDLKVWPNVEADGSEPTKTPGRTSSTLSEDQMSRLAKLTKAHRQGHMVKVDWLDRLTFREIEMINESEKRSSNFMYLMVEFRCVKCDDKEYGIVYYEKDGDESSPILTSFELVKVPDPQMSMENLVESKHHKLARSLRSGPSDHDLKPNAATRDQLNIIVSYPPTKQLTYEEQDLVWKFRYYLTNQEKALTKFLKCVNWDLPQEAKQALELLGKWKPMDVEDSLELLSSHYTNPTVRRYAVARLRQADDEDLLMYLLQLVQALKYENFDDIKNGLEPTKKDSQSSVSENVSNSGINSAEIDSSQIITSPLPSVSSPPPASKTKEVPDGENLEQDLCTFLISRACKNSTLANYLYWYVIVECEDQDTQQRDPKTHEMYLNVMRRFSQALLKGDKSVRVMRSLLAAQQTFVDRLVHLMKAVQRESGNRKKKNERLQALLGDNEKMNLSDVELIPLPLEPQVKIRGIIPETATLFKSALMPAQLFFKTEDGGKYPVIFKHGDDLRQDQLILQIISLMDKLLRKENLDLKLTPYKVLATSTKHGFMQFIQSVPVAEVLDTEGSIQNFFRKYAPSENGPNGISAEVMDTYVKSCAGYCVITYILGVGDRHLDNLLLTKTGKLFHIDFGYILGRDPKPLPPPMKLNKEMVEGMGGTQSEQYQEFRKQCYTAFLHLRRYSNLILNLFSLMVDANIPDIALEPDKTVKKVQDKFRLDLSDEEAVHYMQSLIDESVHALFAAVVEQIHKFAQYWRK
Value Type: IC50 (µM)

- O=C(O)c1cccc(Cn2cc(-c3cccc4c(=O)cc(N5CCOCC5)[nH]c34)nn2)c1 [Compound 37]: 0.59

###

Biological target: hPI3Kδ (PIK3CD/PIK3R1) (Homo sapiens, UniProt O00329)
Construct: purchased ProQinase, Germany 1162–1165‐1
Sequence (O00329 whole entry): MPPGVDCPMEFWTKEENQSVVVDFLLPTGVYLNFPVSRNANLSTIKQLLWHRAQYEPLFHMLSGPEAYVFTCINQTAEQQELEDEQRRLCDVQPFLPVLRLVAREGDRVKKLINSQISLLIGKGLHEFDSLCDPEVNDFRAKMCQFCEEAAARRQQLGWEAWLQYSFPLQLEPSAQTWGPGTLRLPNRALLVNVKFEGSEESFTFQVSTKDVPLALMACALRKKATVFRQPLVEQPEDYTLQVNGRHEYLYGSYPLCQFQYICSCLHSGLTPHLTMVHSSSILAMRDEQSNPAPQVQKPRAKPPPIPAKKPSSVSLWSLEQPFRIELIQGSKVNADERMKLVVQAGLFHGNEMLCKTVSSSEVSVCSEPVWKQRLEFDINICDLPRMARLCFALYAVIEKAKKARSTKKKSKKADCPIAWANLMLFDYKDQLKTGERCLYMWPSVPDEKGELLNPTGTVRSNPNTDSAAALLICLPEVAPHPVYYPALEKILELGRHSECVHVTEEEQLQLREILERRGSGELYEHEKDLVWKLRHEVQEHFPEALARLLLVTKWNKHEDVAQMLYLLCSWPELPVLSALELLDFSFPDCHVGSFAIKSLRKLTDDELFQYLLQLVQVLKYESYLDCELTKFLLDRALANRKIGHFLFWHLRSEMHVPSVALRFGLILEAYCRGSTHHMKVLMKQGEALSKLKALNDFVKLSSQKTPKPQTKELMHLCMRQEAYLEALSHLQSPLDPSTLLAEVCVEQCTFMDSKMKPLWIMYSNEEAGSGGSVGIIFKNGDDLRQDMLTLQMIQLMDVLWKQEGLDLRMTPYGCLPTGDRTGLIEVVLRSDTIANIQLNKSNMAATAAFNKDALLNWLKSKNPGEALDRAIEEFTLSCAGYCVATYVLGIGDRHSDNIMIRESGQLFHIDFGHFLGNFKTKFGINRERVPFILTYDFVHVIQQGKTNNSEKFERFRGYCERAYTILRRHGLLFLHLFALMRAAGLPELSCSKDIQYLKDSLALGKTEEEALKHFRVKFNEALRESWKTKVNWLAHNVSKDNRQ
Sequence (P27986 whole entry partner): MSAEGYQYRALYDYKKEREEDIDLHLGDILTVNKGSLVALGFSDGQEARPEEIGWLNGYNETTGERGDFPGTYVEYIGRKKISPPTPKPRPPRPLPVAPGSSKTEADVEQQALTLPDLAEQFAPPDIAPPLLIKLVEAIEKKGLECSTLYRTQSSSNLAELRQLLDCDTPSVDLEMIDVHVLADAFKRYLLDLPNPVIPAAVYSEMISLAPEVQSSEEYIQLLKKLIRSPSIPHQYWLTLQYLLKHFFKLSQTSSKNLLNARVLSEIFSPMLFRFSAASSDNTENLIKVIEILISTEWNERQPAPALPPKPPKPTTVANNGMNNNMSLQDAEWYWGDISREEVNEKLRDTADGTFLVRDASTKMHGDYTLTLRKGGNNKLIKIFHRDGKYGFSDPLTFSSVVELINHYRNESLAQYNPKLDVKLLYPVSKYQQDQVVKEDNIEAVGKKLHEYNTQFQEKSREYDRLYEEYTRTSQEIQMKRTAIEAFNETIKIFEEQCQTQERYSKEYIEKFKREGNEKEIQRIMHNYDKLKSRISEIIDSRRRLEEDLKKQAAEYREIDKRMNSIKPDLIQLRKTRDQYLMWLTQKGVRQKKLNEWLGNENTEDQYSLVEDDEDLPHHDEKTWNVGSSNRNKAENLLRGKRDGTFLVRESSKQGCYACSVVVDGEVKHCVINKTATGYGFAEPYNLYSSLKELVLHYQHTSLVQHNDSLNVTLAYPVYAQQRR
Assay: lipid kinase assay (ADP-Glo), PI3Kδ
Format: biochemical
Conditions: determined at 1 μM, at least triplicate; read-out: Inhibitory activity, PI3K isoform δ
Value Type: inhibition at 1 µM

- COc1cccc(-n2cc(-c3cccc4c(=O)cc(N5CCOCC5)[nH]c34)nn2)c1 [Compound 35]: > 50%
- O=C(O)c1ccc(-n2cc(-c3cccc4c(=O)cc(N5CCOCC5)[nH]c34)nn2)cc1 [Compound 45]: > 50%
- O=c1cc(N2CCOCC2)[nH]c2c(-c3cn(-c4ccccc4)nn3)cccc12 [Compound 25]: > 50%
- O=c1cc(N2CCOCC2)[nH]c2c(-c3cn(-c4ccc5ccccc5c4)nn3)cccc12 [Compound 34]: < 50%
- O=C(O)c1cccc(-n2cc(-c3cccc4c(=O)cc(N5CCOCC5)[nH]c34)nn2)c1 [Compound 52]: < 50%
- O=C(O)c1cccc(Cn2cc(-c3cccc4c(=O)cc(N5CCOCC5)[nH]c34)nn2)c1 [Compound 37]: > 50%
- O=c1cc(N2CCOCC2)[nH]c2c(-c3cn(-c4ccc(OC(F)(F)F)cc4)nn3)cccc12 [Compound 29]: < 50%
- COc1ccc(-n2cc(-c3cccc4c(=O)cc(N5CCOCC5)[nH]c34)nn2)cc1O [Compound 27]: < 50%

###

pIC50: recorded values
Molecular target: human PI3Kα (PIK3CA/PIK3R1) (Homo sapiens)
Construct: purchased ProQinase, Germany 1161‐1165‐1
Sequence (P42336 whole entry, one chain of several): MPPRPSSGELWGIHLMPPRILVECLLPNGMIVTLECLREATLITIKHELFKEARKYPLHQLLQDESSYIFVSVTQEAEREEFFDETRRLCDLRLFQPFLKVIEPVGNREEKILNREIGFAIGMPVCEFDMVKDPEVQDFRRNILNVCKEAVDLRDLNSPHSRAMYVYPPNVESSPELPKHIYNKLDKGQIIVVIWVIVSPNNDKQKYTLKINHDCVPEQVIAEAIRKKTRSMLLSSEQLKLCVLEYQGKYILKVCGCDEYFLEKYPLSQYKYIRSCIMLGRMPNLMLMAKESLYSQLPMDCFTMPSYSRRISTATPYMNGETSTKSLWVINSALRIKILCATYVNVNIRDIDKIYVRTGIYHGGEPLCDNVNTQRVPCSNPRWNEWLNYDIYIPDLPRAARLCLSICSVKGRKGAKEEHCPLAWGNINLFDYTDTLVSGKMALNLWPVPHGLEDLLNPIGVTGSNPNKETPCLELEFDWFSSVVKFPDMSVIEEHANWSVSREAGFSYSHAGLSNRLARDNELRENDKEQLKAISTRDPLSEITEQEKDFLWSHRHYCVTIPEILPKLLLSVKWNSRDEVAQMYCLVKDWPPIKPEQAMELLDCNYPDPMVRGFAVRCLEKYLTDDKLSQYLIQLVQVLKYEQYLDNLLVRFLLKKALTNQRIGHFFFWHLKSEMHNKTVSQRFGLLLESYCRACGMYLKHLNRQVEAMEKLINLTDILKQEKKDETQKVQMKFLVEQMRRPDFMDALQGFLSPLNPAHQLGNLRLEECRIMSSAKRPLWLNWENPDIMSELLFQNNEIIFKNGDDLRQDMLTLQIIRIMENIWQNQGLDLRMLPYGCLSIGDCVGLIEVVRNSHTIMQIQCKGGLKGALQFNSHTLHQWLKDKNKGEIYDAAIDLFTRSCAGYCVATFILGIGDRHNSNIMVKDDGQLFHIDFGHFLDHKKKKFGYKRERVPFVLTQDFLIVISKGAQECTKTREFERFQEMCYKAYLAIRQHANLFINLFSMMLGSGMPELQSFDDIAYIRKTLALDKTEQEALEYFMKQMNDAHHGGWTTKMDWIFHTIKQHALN
Assay: lipid kinase assay (ADP-Glo), PI3Kα
Format: biochemical
Settings: Table 3, analogues of 37; mean of at least three determinations, 95 % confidence intervals; read-out: IC50 against PI3Kα
pIC50: −log10 of the molar value.
Value Type: pIC50

- O=C(NCc1ccccc1)c1cccc(Cn2cc(-c3cccc4c(=O)cc(N5CCOCC5)[nH]c34)nn2)c1: 6.85
- O=C(NC1CC1)c1cccc(Cn2cc(-c3cccc4c(=O)cc(N5CCOCC5)[nH]c34)nn2)c1: 6.60
- NC(=O)c1cccc(Cn2cc(-c3cccc4c(=O)cc(N5CCOCC5)[nH]c34)nn2)c1: 6.10
- CCN(CC)C(=O)c1cccc(Cn2cc(-c3cccc4c(=O)cc(N5CCOCC5)[nH]c34)nn2)c1: 6.54

###

Assay: stability in mouse plasma
Type: in vitro ADME
Details: mouse, mouse plasma, 50 μM substrate, 30 min incubation, 37 °C; read-out: Mouse plasma t 1/2
Value Type: half-life at 50 µM

* CCCCOC(=O)c1cccc(Cn2cc(-c3cccc4c(=O)cc(N5CCOCC5)[nH]c34)nn2)c1 | < 1 min
* CC(C)CCOC(=O)c1cccc(Cn2cc(-c3cccc4c(=O)cc(N5CCOCC5)[nH]c34)nn2)c1 | < 1 min
* CCCCCCCCCCCOC(=O)c1cccc(Cn2cc(-c3cccc4c(=O)cc(N5CCOCC5)[nH]c34)nn2)c1 | 4.4 min
* COC(=O)c1cccc(Cn2cc(-c3cccc4c(=O)cc(N5CCOCC5)[nH]c34)nn2)c1 | 13.3 min
* CC(C)OC(=O)c1cccc(Cn2cc(-c3cccc4c(=O)cc(N5CCOCC5)[nH]c34)nn2)c1 | 15.1 min
* O=C(OCCN1CCOCC1)c1cccc(Cn2cc(-c3cccc4c(=O)cc(N5CCOCC5)[nH]c34)nn2)c1 | 2.5 min
* O=C(OCc1ccccc1)c1cccc(Cn2cc(-c3cccc4c(=O)cc(N5CCOCC5)[nH]c34)nn2)c1 | < 1 min
* CCCC(C)OC(=O)c1cccc(Cn2cc(-c3cccc4c(=O)cc(N5CCOCC5)[nH]c34)nn2)c1 (stereo not shown) | 4.2 min
* O=C(OCc1ccncc1)c1cccc(Cn2cc(-c3cccc4c(=O)cc(N5CCOCC5)[nH]c34)nn2)c1 | < 1 min
* O=C(OCc1ccc2c(c1)OCO2)c1cccc(Cn2cc(-c3cccc4c(=O)cc(N5CCOCC5)[nH]c34)nn2)c1 | < 1 min

###

Target: UniProt O75747
Sequence (O75747 1-1486): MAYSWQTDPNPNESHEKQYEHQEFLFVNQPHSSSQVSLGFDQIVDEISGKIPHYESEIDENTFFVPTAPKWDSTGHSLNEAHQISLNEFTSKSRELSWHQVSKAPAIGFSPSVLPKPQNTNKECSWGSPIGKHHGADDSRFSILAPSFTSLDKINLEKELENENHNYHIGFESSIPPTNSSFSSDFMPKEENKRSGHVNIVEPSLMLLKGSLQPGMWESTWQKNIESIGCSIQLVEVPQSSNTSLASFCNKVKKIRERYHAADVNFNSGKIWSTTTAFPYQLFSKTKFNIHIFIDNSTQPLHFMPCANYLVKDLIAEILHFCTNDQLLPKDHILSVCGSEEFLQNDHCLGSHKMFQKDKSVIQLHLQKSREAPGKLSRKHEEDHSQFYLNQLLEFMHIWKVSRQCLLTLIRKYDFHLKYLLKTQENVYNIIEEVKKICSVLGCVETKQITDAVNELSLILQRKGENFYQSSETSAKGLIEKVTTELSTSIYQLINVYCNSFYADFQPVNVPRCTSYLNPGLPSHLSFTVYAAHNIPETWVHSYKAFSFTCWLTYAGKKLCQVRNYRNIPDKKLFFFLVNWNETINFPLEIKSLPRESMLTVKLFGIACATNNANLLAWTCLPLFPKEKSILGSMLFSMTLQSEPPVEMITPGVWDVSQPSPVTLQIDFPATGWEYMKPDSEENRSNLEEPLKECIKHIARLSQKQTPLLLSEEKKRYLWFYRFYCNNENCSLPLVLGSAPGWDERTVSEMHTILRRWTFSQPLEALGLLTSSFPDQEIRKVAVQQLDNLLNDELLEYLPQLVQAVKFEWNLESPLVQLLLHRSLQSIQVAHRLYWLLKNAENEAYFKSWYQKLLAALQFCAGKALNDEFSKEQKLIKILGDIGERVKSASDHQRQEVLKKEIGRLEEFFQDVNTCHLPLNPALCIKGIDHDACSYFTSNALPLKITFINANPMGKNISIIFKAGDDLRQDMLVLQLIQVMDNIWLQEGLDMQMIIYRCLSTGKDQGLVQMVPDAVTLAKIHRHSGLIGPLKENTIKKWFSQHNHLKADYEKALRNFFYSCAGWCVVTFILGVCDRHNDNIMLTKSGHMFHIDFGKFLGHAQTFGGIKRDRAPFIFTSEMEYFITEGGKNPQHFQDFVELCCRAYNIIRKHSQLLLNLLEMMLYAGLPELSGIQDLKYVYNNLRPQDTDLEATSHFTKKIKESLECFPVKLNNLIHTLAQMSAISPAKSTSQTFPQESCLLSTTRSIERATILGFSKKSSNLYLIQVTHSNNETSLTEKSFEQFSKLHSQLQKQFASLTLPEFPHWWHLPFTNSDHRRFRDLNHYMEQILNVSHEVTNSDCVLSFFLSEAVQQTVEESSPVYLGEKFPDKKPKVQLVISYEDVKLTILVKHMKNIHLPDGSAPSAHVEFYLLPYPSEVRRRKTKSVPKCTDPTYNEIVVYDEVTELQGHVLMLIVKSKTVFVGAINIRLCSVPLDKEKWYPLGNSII
Value Type: IC50 (nM)

* O=C(O)c1cccc(Cn2cc(-c3cccc4c(=O)cc(N5CCOCC5)[nH]c34)nn2)c1 | 2800

###

Target: hPI3K‐C2β (PIK3C2B) (Homo sapiens)
Value Type: IC50

- O=C(O)c1cccc(Cn2cc(-c3cccc4c(=O)cc(N5CCOCC5)[nH]c34)nn2)c1 [Compound 37]: > 20 µM

###

Target: hPI3Kδ (PIK3CD/PIK3R1) (Homo sapiens, UniProt O00329)
Construct: purchased ProQinase, Germany 1162–1165‐1
Experiment: lipid kinase assay (ADP-Glo), PI3Kδ
Type: biochemical
Settings: Table 2; mean of at least three determinations, 95 % confidence intervals
pIC50: −log10 of the molar value.
Value Type: pIC50

* O=C(O)c1cccc(Cn2cc(-c3cccc4c(=O)cc(N5CCOCC5)[nH]c34)nn2)c1 | 7.72
* O=c1cc(N2CCOCC2)[nH]c2c(-c3cn(Cc4ccccc4)nn3)cccc12 | 6.33
* O=c1cc(N2CCOCC2)[nH]c2c(-c3cn(-c4ccccc4)nn3)cccc12 | 6.21
* O=c1cc(N2CCOCC2)[nH]c2c(-c3cn(-c4ccccc4O)nn3)cccc12 | 6.46
* O=C(O)c1ccc(-n2cc(-c3cccc4c(=O)cc(N5CCOCC5)[nH]c34)nn2)cc1 | 6.77
* Cc1cc(F)ccc1Oc1cccc2c(=O)cc(N3CCOCC3)[nH]c12 [TGX155, reference compound] | 6.39
* COc1cccc(-n2cc(-c3cccc4c(=O)cc(N5CCOCC5)[nH]c34)nn2)c1 | 6.09
